Tested on: LOX IMVI melanoma
Assay: NCI-60 one-dose screen, 48 h (100 = growth as untreated, 0 = no growth, -100 = all killed)
Conditions: 10 µM unless noted
Compounds without any hit were thinned out: in the full panel of roughly 83,000, 20% have a hit.
If the reported growth equals or exceeds 80%, assign y. If not, assign n.

// query Assess whether reported growth for CCN(CC)c1ccc2cc(C(Nc3ccc(Cl)cc3)c3nnnn3C(C)(C)C)c(=O)oc2c1 (stereo not given) sits at 80% or higher.
// result n

// query Given `Cc1ccccc1OC(=O)c1cccc(Cl)c1` , state whether its growth is at least 80%.
// result y

// query Check this compound for growth at or above 80%: `COc1ccc(OC)c([N+](=O)[O-])c1C(=O)CNC(C)=O`
// result y

// query Is growth at least 80%? Consider `CCn1cc(-c2ccnc(NCCNS(=O)(=O)c3ccc(Br)cc3)c2)c(-c2cccc(OC)c2)n1`
// result y

// query Hi team, for `CCc1ccc(C2=C/C(=C/c3ccccc3)C(=O)N2CCc2ccc(S(N)(=O)=O)cc2)cc1` , is the recorded growth at or above 80%?
// result y

// query Tell me whether growth is at least 80% here: `COc1ccc(-c2cc(-c3ccccc3)nc(SCCCCCC(=O)NO)n2)cc1`
// result n

// query For this compound, is measured growth 80% or higher? `CC(C)(C)OC(=O)N1C=C/C(=C\Cn2cc(-c3ccccc3)nn2)CC1`
// result n

// query In plain terms: is recorded growth at least 80% for `O=C(Nc1ccc(Oc2ccc(F)cc2)c(Cl)c1)c1cnccn1` ?
// result n

// query hey, is growth for this one >= 80%? `O=C(NNc1ccc(-c2ccccc2)nn1)c1ccc(F)cc1`
// result y

// query Hello, I need to know if `C[C@]12CCc3c(ccc4cc(O)ccc34)[C@@H]1CC[C@H]2O` has measured growth not below 80%. Thanks!
// result y
